Target chain: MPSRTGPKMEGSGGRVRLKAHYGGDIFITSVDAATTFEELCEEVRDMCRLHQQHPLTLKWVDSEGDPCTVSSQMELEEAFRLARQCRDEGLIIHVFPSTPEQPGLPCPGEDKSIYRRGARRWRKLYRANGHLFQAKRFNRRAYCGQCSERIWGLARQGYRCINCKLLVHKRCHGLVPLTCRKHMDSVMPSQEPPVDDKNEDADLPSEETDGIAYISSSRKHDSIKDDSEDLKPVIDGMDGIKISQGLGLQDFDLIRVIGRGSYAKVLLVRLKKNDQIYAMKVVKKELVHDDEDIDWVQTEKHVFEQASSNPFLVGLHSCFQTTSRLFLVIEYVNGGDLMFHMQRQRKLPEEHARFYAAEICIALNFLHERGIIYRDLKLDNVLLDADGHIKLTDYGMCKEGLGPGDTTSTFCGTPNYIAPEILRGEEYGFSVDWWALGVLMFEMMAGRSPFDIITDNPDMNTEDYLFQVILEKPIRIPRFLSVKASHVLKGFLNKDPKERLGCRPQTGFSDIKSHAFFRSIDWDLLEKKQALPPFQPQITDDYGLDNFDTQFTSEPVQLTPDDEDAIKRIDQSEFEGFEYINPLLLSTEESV
property: pIC50
The meaning of pIC50 here: minus log10 of the concentration in molar units.

[in] Would you kindly share the measured pIC50 for CCOC(=O)c1c(NC(C)=O)sc(/C(C)=N/O)c1-c1ccccc1 ?
[out] 5.00
